System: FXR:RXRa (NR concentration 270 nM, RXRa partner concentration 90 nM)
assay text: PBM binding z-score (relative to random genomic background probes); higher = stronger binding; sequences stand for … in GC…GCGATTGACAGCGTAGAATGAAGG
Parameter threshold = 0.4. Response is 1 when PBM binding z-score meets or exceeds it, else 0.

CGAAGTAGGTCAGAACAGGACAGTGAAGGATGAT :: 1
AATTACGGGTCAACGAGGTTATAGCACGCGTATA :: 1
TCTATTAGTTGATTAGGGCAACAGAAACAGCGGA :: 1

Given the entry TCTATTAGTTGAAGGACAACCGACGAGTCCGTTT , answer whether its PBM binding z-score meets or surpasses 0.4.
1

Given the entry TCGCGTAGGTTAGTCGGGGCATTCAGCCAACATA , answer whether its PBM binding z-score meets or surpasses 0.4.
0

* * *

Test system: PPARg:RXRa 270nM:90nM, anti-RXR (NR concentration 270 nM, RXRa partner concentration 90 nM)
assay text: PBM binding z-score (relative to random genomic background probes); higher = stronger binding; sequences stand for … in GC…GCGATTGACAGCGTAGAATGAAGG
value type: PBM binding z-score
I'd appreciate a reply containing only the number, no unit.

Solved entries (count: 3):
TCGTATAGGTAAACAGGTGAAAGTCCGTAAGTTA :: 2.64
ATCGAAAGGTCGAGGTGAATATAGAGAAAGGGAA :: 3.97
CCAGACATGTGAAAGGTAACTCAGTCTGGTACGC :: 2.44

# PBM binding z-score lookup, item TAGCCAAGGTCATTGGGCCAGTATAGTACGCATC
5.57

# PBM binding z-score lookup, item AGAACGAGGGCACGCTGAGTTGAAAGCAGAGTAG
1.77

# PBM binding z-score lookup, item TAGCCTAGGTCATGGGCCAGAATACCACGCGAAC
3.63

# PBM binding z-score lookup, item TCTAGCAGGCCAGAAGGTCACTCAAGAGGTACGG
2.86

* * *

System: LXRb:RXRa (NR concentration 270 nM, RXRa partner concentration 90 nM)
assay text: PBM binding z-score (relative to random genomic background probes); higher = stronger binding; sequences stand for … in GC…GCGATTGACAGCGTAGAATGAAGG
Parameter threshold = 2. Response is met when PBM binding z-score meets or exceeds it, else not met.

Answered cases to consult:
TCTAGCAGGCCAGAGGGTCACTAAAGAGGTACGG :: not met
ATATGTAGGTTACATCCGGGTCACTCAGGCTATG :: met
CAAACTAGGTAACCGGAAGGTCAAAGTCCGCATG :: met
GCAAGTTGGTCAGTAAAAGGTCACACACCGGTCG :: met
ATCGAAAGGTCGTGAGGTGAGCATACAGAAAGGC :: met

Given the entry TTACCAAGGTGAGCTAAGGTCGTTGATCCAACTC , answer whether its PBM binding z-score meets or surpasses 2.
not met

Given the entry TCGAGTAGGTTAGTCGGCGCATTCAGCCAACATA , answer whether its PBM binding z-score meets or surpasses 2.
not met

Given the entry ATCAAAAGGTCGACGAGGTGAGTATACACCGTTT , answer whether its PBM binding z-score meets or surpasses 2.
met

Given the entry CCTGCTACGTCATGGTCAGCTAATCTACAGTATG , answer whether its PBM binding z-score meets or surpasses 2.
not met

* * *

Test system: THRa homodimer (NR concentration 90 nM)
assay text: PBM binding z-score (relative to random genomic background probes); higher = stronger binding; sequences stand for … in GC…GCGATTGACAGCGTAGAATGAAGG
Quick reference: PBM binding z-score of the listed items.
I'd appreciate a reply containing only the number, no unit.

AGAATGAGGTTATACGTAGATAAGGGAAGAAAGT :: 0.472
ATCTCTAGGTTACAAGTTCAGTGAAAGAGAGGAC :: 1.48

# PBM binding z-score lookup, item CCTACCAGGCCAATCTGGGTCACTCAAGGCTTGA
1.34

# PBM binding z-score lookup, item GCGACTGGGGCAAAGCAGGTTCCCATAAGGTTGG
-0.261

# PBM binding z-score lookup, item GCTCGGAGGGCAAGGTCAGAGCTTTGTCCGTAGA
0.825

# PBM binding z-score lookup, item TATACAGGGTCAAAGGCCAGAGTCCGAATGTCGA
0.963

# PBM binding z-score lookup, item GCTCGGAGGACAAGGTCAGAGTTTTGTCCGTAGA
1.72

# PBM binding z-score lookup, item TTACCAAGGTGAAAGTCGTTGATCCCTCTGTAGA
0.568

# PBM binding z-score lookup, item CGAACGAGGGCATGAGTAGATAGCAAATGCCGAT
-0.437

# PBM binding z-score lookup, item AATACAGGGTCATCGTAGGACAGAGTACGCACAG
1.71

# PBM binding z-score lookup, item CCTAGTTAGTCAGGAGGTCACACACCGGATATGA
2.73

# PBM binding z-score lookup, item GGAACGAGGGCATTCGAGTTAATAGCATGGCGAT
-0.196

# PBM binding z-score lookup, item GCGACTGGGGCAAAGCAGGTTACCTTAAGGTTGG
1.82

# PBM binding z-score lookup, item CTCGAAAGGCCGTGCTCAGGTGAGTATACCAAAC
0.381

# PBM binding z-score lookup, item TGACTGAGGTTATAAGATCAGGGAACGTTGCAAA
-0.016

# PBM binding z-score lookup, item ACTAGCTGGTCAGCTGAGGTCACACACAATTCGG
4.71

# PBM binding z-score lookup, item CATCCAAGGTCAATGCTAGGTCAGTGAAAGCATT
2.95

# PBM binding z-score lookup, item TTACCAATGTGAGCTGAGGTCGTTGATCCAACTC
1.54

# PBM binding z-score lookup, item CGAACTAGGTCATTGACAGGCCAGTGAATAGTAA
0.248

* * *

System: LXRa homodimer (NR concentration 270 nM)
assay text: PBM binding z-score (relative to random genomic background probes); higher = stronger binding; sequences stand for … in GC…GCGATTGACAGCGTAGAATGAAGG
Quick reference: PBM binding z-score of the listed items.
I'd appreciate a reply containing only the number, no unit.

CCTATTAGTTGACCATAAGGGCAACAGAAGCTCG :: 0.381
CAGACTAGGTCAAGGTCAAAGTCGGTTTGTGCCA :: 3.5
TTACTAAGGTGAAGGTCGTTGATCCCTCTGTAGA :: 0.0636
CGTCCAAGGTCATCAGGTCAGTGAAAGCGACGTG :: 1.85
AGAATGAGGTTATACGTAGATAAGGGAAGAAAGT :: -0.00161

Now, please, on to the next sequence.
# PBM binding z-score lookup, item AATAGAGGGTCATCGTAGGCCAGAGTACGCACAG
1.56

* * *

Test system: THRa homodimer (NR concentration 90 nM)
assay text: PBM binding z-score (relative to random genomic background probes); higher = stronger binding; sequences stand for … in GC…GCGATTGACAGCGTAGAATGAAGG
Quick reference: PBM binding z-score of the listed items.
I'd appreciate a reply containing only the number, no unit.

Solved entries (count: 2):
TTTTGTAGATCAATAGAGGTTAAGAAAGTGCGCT :: -0.0563
CACACTAGGTCACGAAAGGTCAAAGTCGAATGAC :: 3.18

# PBM binding z-score lookup, item TAGCCTAGGTCATTGGGCCTGTATAGTACGCATC
0.697

# PBM binding z-score lookup, item GCAGACAGGTGACACGCAGGTAACTCAGGGTGGC
-0.377

# PBM binding z-score lookup, item CCTAGCAGGCCAATCTCGGTCACTCAAGGCTTGA
-0.183

# PBM binding z-score lookup, item CAGCCTAGGTCGGGGCCAGTATAGGAGGAACGTT
-0.524

# PBM binding z-score lookup, item CGTCAAAGTTCAAGTAAGGTAACGTAAAGCACGC
1.95

# PBM binding z-score lookup, item AGTCGAAGTTCACTAGGTAACGTAAGATTCAGCT
-0.0118

# PBM binding z-score lookup, item TCGAGTAGGTTAGAGGCATTCAGAATGGCGTCGA
-1.15

# PBM binding z-score lookup, item GCGACTGGGGCATCAGCGGGTTACCATAACTTAA
-0.267

# PBM binding z-score lookup, item AGAATGTGGTTATTAAGATCAGGGAATTGCGGTC
0.17

# PBM binding z-score lookup, item AATACAGGGTCACTAGGCCAGACTAGGTACGAAT
1.22

# PBM binding z-score lookup, item CCTACTGGGCCACGAAAGGTCAATGATTCAGTGA
0.66

# PBM binding z-score lookup, item TCTGCTAGGTCAACTATGGTCAGCTAATCTGCTA
0.915

# PBM binding z-score lookup, item CGAACTAGGTCATAACAGGACAGTGAAGGATGAT
0.443

# PBM binding z-score lookup, item ATCTATAGGTAAAGATAGTTCAGTGAATGCAAAT
0.0462

# PBM binding z-score lookup, item CGTCAAAGTGCAACTAAGGTAACGTAAAGCACGC
1.18

# PBM binding z-score lookup, item ACTCAAAGTTCACTAGGTAACGTAAGATTCAGCT
0.585
